Molecular target: Lck (h) (Homo sapiens, UniProt P06239)
Sequence (P06239 whole entry): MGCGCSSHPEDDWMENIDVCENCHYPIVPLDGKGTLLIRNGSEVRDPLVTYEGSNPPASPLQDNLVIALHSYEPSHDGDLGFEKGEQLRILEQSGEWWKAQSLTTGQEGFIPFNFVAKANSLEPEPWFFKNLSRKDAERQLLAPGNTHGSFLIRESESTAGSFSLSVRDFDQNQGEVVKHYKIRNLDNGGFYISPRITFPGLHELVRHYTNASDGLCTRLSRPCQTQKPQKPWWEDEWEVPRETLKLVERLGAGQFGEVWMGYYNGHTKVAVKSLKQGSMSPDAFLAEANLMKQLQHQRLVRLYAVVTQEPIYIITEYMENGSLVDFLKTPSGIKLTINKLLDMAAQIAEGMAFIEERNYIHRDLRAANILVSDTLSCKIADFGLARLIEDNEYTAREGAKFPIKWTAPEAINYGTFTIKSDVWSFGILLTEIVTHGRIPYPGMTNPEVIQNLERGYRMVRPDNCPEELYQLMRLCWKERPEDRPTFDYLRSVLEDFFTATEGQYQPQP
Test: Lck Human  Kinase Enzymatic Radiometric Assay
Type: biochemical
Conditions: read-out: Lck IC50 nM Range*
Procedure: Lck (h) is incubated with 50 mM Tris pH 7.5, 0.1 mM EGTA, 0.1 mM Na3VO4, 250 uM KVEKIGEGTYGVVYK (Cdc2 peptide), 10 mM MgAcetate and [gamma-33P]-ATP (specific activity and concentration as required). The reaction is initiated by the addition of the Mg/ATP mix. After incubation for 40 minutes at RT, the reaction is stopped by the addition of phosphoric acid to a concentration of 0.5%. […]
Provide the reported IC50 of each item.

Challenge: Entry CN1CCN(c2ccc(-c3cc(-c4cc5c(cc4F)C(=O)NCC5)c(N)nc3F)cc2)CC1 has what IC50?
Response given: > 1000 nM

Challenge: Entry Nc1nc(F)c(-c2ccc(OC3CCN(C(=O)C4CC4)CC3)cc2)cc1-c1ccc2c(c1)CCNC2=O has what IC50?
Response given: > 1000 nM

Challenge: Entry COCCN1CCOCC1c1ccc(-c2cc(-c3ccc4c(c3)CCNC4=O)c(N)nc2F)cc1 (stereo not shown) has what IC50?
Response given: > 1000 nM

Challenge: Entry CC(C)N1CCN(c2ccc(-c3cc(-c4cc(F)c5c(c4)CCNC5=O)c(N)nc3F)cc2F)CC1 has what IC50?
Response given: 0.1 to 10 nM

----------
Target: Recombinant (1-346) HPK1 (h) (Homo sapiens)
Construct: Recombinant (1-346) HPK1 (h) is incubated with 8 mM MOPS pH 7.0
Sequence (Q92918 1-346): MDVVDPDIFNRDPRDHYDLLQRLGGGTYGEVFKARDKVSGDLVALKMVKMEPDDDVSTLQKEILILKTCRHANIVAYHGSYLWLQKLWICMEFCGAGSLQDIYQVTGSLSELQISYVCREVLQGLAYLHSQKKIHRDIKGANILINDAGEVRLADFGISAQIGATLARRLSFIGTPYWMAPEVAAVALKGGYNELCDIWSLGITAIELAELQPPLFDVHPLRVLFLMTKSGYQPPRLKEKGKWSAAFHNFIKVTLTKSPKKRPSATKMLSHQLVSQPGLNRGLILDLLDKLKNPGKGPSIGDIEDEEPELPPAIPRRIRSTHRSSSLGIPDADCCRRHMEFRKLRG
Experiment: HPK1 Human STE Kinase Enzymatic Radiometric Assay
Assay type: biochemical
Conditions: read-out: HPK1 IC50 nM Range*
Provide the reported IC50 of each item.

Challenge: Entry CN1C[C@H]2C[C@@]2(c2ccc(-c3cc(-c4cc5c(cc4F)C(=O)NCC5)c(N)nc3F)cc2)C1 has what IC50?
Response given: 0.1 to 10 nM

Challenge: Entry Nc1nc(F)c(-c2ccc(N3CCCCC3)cc2)cc1-c1ccc2c(c1)CCNC2=O has what IC50?
Response given: 0.1 to 10 nM

Challenge: Entry Nc1nc(F)c(-c2ccc(CN3CCOCC3)cc2)cc1-c1ccc2c(c1)CCNC2=O has what IC50?
Response given: 11 to 100 nM

Challenge: Entry CN1CCOc2cc(-c3cc(-c4ccc5c(c4)CCNC5=O)c(N)nc3F)ccc21 has what IC50?
Response given: 0.1 to 10 nM

Challenge: Entry Cc1nc2cc(-c3cc(-c4ccc(N5CCN(CC6CC6)CC5)cc4)c(F)nc3N)ccc2c(=O)[nH]1 has what IC50?
Response given: 11 to 100 nM

Challenge: Entry CN1CCN(c2ccc(-c3cc(-c4ccc5c(c4)CCNC5=O)c(N)nc3F)cc2N)CC1 has what IC50?
Response given: 0.1 to 10 nM

Challenge: Entry Cc1nc2cc(-c3cc(-c4ccc(N5CCN(CC6CC6)CC5)cc4)c(F)nc3N)cc(F)c2c(=O)[nH]1 has what IC50?
Response given: 0.1 to 10 nM

Challenge: Entry Cc1cc2cc(-c3cc(-c4ccc(C5CCOCC5)c(CN(C)C)c4)c(F)nc3N)cc(F)c2c(=O)[nH]1 has what IC50?
Response given: 11 to 100 nM

----------
Biological target: Recombinant (1-346) HPK1 (h) (Homo sapiens)
Construct: Recombinant (1-346) HPK1 (h) is incubated with 8 mM MOPS pH 7.0
Assay: HPK1 Human STE Kinase Enzymatic Radiometric Assay
Type: biochemical
Conditions: read-out: HPK1 IC50 nM Range*
quantity.measured: IC50

Challenge: Entry CC(C)[C@@H]1CN(c2ccc(-c3cnc(N)c(-c4ccc5c(c4)CCNC5=O)c3F)cc2)CCO1 has what IC50?
Response given: 11 to 100 nM

Challenge: Entry Nc1nc(F)c(-c2ccc(N3CCC(F)CC3)cc2)cc1-c1ccc2c(c1)CCNC2=O has what IC50?
Response given: 0.1 to 10 nM

Challenge: Entry Nc1nc(F)c(-c2ccc(OC3CCN(CCC(F)(F)F)CC3)cc2)cc1-c1ccc2c(c1)CCNC2=O has what IC50?
Response given: 0.1 to 10 nM

Challenge: Entry CN(C)Cc1cc(-c2cc(-c3ccc4c(c3)CCNC4=O)c(N)nc2F)ccc1OCC1CC1 has what IC50?
Response given: 11 to 100 nM

Challenge: Entry CN1CCC(c2ccc(-c3cc(-c4ccc5c(c4)CCNC5=O)c(N)nc3Cl)cc2)CC1 has what IC50?
Response given: 11 to 100 nM

Challenge: Entry CN(C)Cc1cc(-c2cc(-c3cc4c(F)c[nH]c(=O)c4cc3F)c(N)nc2F)ccc1N1CCOCC1 has what IC50?
Response given: 0.1 to 10 nM

Challenge: Entry CO[C@@H]1CCN(Cc2cc(-c3cc(-c4ccc5c(c4)CCNC5=O)c(N)nc3F)ccc2N2CCOCC2)C1 has what IC50?
Response given: 11 to 100 nM

Challenge: Entry Nc1nc(F)c(-c2ccc(C3CCCN(CC(F)(F)F)C3)cc2)cc1-c1ccc2c(c1)CCNC2=O (centres unmarked) has what IC50?
Response given: 11 to 100 nM

Challenge: Entry Nc1nc(F)c(-c2ccc(N3CCOCC3)c(CN3CCC3)c2)cc1-c1ccc2c(c1)CCNC2=O has what IC50?
Response given: 11 to 100 nM

Challenge: Entry CN1CCN(c2ccc(-c3cc(-c4ccc5c(c4)C(C)(C)NC5=O)c(N)nc3F)cc2)CC1 has what IC50?
Response given: 0.1 to 10 nM

Challenge: Entry COC1CCN(Cc2cc(-c3cc(-c4cc5c(cc4F)C(=O)NCC5)c(N)nc3F)ccc2C2CCOCC2)CC1 has what IC50?
Response given: 11 to 100 nM

Challenge: Entry CC(C)N1CCN(c2ccc(-c3cc(-c4cc5c(cc4F)C(=O)NCC5)c(N)nc3Cl)cc2)CC1 has what IC50?
Response given: 0.1 to 10 nM

Challenge: Entry Nc1nc(F)c(-c2cccc(OCC3CC3)c2)cc1-c1cc2c(cc1F)C(=O)NCC2 has what IC50?
Response given: 101 to 1000 nM

Challenge: Entry Nc1nc(F)c(-c2ccc(N3CC[C@@H](F)C3)cc2)cc1-c1ccc2c(c1)CCNC2=O has what IC50?
Response given: 11 to 100 nM

Challenge: Entry COCCN1C[C@@H]2C[C@]2(c2ccc(-c3cc(-c4ccc5c(c4)CCNC5=O)c(N)nc3F)cc2)C1 has what IC50?
Response given: 0.1 to 10 nM

Challenge: Entry Nc1nc(F)c(-c2ccc(N3CCOCC3)c(CN3CCCCC3)c2)cc1-c1ccc2c(c1)CCNC2=O has what IC50?
Response given: 11 to 100 nM

Challenge: Entry Cc1nc2cc(-c3cc(-c4ccc(N5CCOCC5)c(CN(C)C)c4)c(F)nc3N)cc(F)c2c(=O)[nH]1 has what IC50?
Response given: 11 to 100 nM

Challenge: Entry CN1CCN(c2ccc(-c3cc(-c4ccc5c(c4)CCNC5=O)c(N)nc3F)nc2)CC1 [I-27, acetate] has what IC50?
Response given: 0.1 to 10 nM

Challenge: Entry Cc1nc2cc(-c3cc(-c4ccc(C5CCOCC5)c(CN(C)C)c4)c(F)nc3N)ccc2c(=O)[nH]1 has what IC50?
Response given: 11 to 100 nM

Challenge: Entry CN1C[C@H]2C[C@@]2(c2ccc(-c3cc(-c4ccc5c(c4)CCNC5=O)c(N)nc3F)cc2)C1 has what IC50?
Response given: 0.1 to 10 nM

Challenge: Entry Cc1nc2cc(-c3cc(-c4ccc(N5CCN(CCC6CC6)CC5)cc4)c(F)nc3N)cc(F)c2c(=O)[nH]1 has what IC50?
Response given: 0.1 to 10 nM

Challenge: Entry Nc1nc(F)c(-c2ccc(N3CCN(CCC4CC4)CC3)cc2)cc1-c1ccc2c(=O)[nH]ccc2c1 has what IC50?
Response given: 0.1 to 10 nM

Challenge: Entry CN(C)Cc1cc(-c2cc(-c3ccc4c(c3)CCNC4=O)c(N)nc2F)c(F)cc1N1CCOCC1 has what IC50?
Response given: 11 to 100 nM

Challenge: Entry Nc1nc(F)c(-c2ccc(OC3CCN(C4COC4)CC3)cc2)cc1-c1cc2c(cc1F)C(=O)NCC2 has what IC50?
Response given: 11 to 100 nM

Challenge: Entry COCCN1CCC(Oc2ccc(-c3cc(-c4ccc5c(c4)CCNC5=O)c(N)nc3F)cc2C(F)(F)F)CC1 has what IC50?
Response given: 0.1 to 10 nM

Challenge: Entry C[C@H]1CN(C)CCN1c1ccc(-c2cc(-c3ccc4c(c3)CCNC4=O)c(N)nc2F)cc1 has what IC50?
Response given: 0.1 to 10 nM

Challenge: Entry Cn1cnnc1CC1(c2cccc(-c3cc(-c4ccc5c(c4)CCNC5=O)c(N)nc3F)c2)COC1 has what IC50?
Response given: 101 to 1000 nM

Challenge: Entry CCN1CCN(c2ccc(-c3cc(-c4ccc5c(c4)CCNC5=O)c(N)nc3Cl)cc2)CC1 has what IC50?
Response given: 11 to 100 nM

Challenge: Entry Cc1[nH]c(=O)c2ccc(-c3cc(-c4ccc(N5CCN(C(C)C)CC5)cc4)c(F)nc3N)cc2c1Cl has what IC50?
Response given: 0.1 to 10 nM

Challenge: Entry Cc1cc2cc(-c3cc(-c4ccc(N5CCN(CCCC(F)F)CC5)cc4)c(F)nc3N)cc(F)c2c(=O)[nH]1 has what IC50?
Response given: 0.1 to 10 nM

Challenge: Entry Nc1nc(F)c(-c2ccc(N3CCOCC3)cc2)cc1-c1cc2c(cc1F)C(=O)NCC2 has what IC50?
Response given: 0.1 to 10 nM

Challenge: Entry CN(C)Cc1cc(-c2cc(-c3ccc4c(c3)CCNC4=O)c(N)nc2F)ncc1N1CCOCC1 has what IC50?
Response given: 11 to 100 nM
